tested target: BetP (Corynebacterium glutamicum, UniProt P54582, G153D)
Sequence (P54582 whole entry G153D): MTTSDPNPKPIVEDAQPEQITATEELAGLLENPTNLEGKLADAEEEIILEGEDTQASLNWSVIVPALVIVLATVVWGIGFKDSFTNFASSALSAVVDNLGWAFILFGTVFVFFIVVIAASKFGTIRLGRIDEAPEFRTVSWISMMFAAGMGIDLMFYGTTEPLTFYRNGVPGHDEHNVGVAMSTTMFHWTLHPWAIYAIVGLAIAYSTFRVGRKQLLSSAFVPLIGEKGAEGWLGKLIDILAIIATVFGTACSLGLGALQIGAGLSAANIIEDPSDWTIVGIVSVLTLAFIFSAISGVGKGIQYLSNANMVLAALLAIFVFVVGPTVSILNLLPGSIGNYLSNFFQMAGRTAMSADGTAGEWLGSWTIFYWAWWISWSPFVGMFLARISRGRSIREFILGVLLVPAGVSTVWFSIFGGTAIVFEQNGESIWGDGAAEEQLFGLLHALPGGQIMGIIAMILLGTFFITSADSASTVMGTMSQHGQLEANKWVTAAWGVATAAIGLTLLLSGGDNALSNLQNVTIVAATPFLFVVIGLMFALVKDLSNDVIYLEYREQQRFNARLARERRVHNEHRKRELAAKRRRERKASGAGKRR
procedure details: tryptophan fluorescence titration, proteoliposomes
quantity measured: Kd (µM)
Give bare numbers, in µM.

Input line: Report Kd under test system BetP (Corynebacterium glutamicum, UniProt P54582, G153D) for C[N+](C)(C)CCO .
Output line: 1150
